# test target: SARS-CoV-2 receptor-binding domain (amino acids 330-532), prototypical Wuhan/Victoria (SARS-CoV-2 (Wuhan/Victoria), UniProt P0DTC2 330-532)
# experimental protocol: SPR, RBD binding kinetics
Kd: recorded values
Supply the numeric figure in pM, leaving out any unit text.

The binder F2-SUMO-C5-Fc (Fc fusion, also called F2-GSGSGS-SUMO-GSGSGS-C5) QVQLVESGGGLVQAGGSLRLACIASGRTFHSYVMAWFRQAPGKEREFVAAISWSSTPTYYGESVKGRFTISRDNAKNTVYLQMNRLKPEDTAVYFCAADRGESYYYTRPTEYEFWGQGTQVTVSSGSGSGSDSEVNQEAKPEVKPEVKPETHINLKVSDGSSEIFFKIKKTTPLRRLMEAFAKRQGKEMDSLRFLYDGIRIQADQTPEDLDMEDNDIIEAHREQIGSGSGSQVQLVESGGGSVQAGGSLTLSCVASGVTLGRHAIGWFRQAPGKERERVSCIRTFDGITSYVESTKGRFTISSNNAMNTVYLQMNSLKPEDTAVYFCALGVTAACSDNPYFWGQGTQVTVSS showed Kd equal to 0.75

Reported Kd for C1-SUMO-C5-Fc (Fc fusion, also called C1-GSGSGS-SUMO-GSGSGS-C5) QVQLVESGGGLVQPGGSLRLSCAASGFTNDFYSIAWFRQAPGKEREGVSWLSVSDNTPTYVDSVKDRFTISRHNANNTVYLQMNMLKPEDTAIYYCAAGRFAGRDTWPSSYDYWGQGTQVTVSSGSGSGSDSEVNQEAKPEVKPEVKPETHINLKVSDGSSEIFFKIKKTTPLRRLMEAFAKRQGKEMDSLRFLYDGIRIQADQTPEDLDMEDNDIIEAHREQIGSGSGSQVQLVESGGGSVQAGGSLTLSCVASGVTLGRHAIGWFRQAPGKERERVSCIRTFDGITSYVESTKGRFTISSNNAMNTVYLQMNSLKPEDTAVYFCALGVTAACSDNPYFWGQGTQVTVSS was 1.63
